B1: HDV Ribozyme (parent)
chain: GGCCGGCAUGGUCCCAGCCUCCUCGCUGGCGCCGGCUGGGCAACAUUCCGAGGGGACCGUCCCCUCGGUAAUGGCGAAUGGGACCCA

Variants of: B1
MEASUREMENT_PROTOCOL: self-cleavage, relative activity (ratio to wild type); higher = more cleavage; co-transcriptional
Please mark T if the recorded self-cleavage is equal to or greater than 0.2, and F if it falls below.

MUTATION_ANNOTATION | ASSIGNED_CATEGORY
C3G G74C | F
U69A G82A | T
C57U U60A | T
U9A G76U | T
U69G A83G | T
U12G G55U | T
G54A A56G | T
C13G C18U | F
C36U G80A | F
C26U G50U | T
C24G C41U | F
G6C U46C | F
G11U C26U | T
C63G A71G | T
A77G | T
C26A C49U | T
U20A C48G | F
C24G C85G | F
A43U A71G | T
C32U G40C | F
U37C C66G | T
G1C C61A | T
